Attribution: the supplement of paper PMC7840683

- Test system: HepaRG
- PROCEDURE DETAILS: LDH release cytotoxicity, % of total lysis control; higher = more cytotoxic
- CONDITION DETAILS: 0.3162278 µM; 48 h
Consider the following molecules; for each one, report its LDH release cytotoxicity.
Reply numerically in %, unit not repeated.

Recorded LDH release cytotoxicity for `Cc1cccc(C)c1O` , please?
-1.93

Next: `COc1ccccc1N`
-0.111

Next: `Cc1ccc(N=CN(C)C=Nc2ccc(C)cc2C)c(C)c1`
-2.67

Next: `CSc1nnc(C(C)(C)C)c(=O)n1N`
-0.959

Next: `O=C(O)COc1ccc(Cl)cc1Cl`
-3.35

Next: `N=C(Nc1ccccc1)Nc1ccccc1`
-1.51

Next: Oc1ccc(O)cc1 [Hydroquinone]
-1.09

Next: `O=[Si]=O`
-1.23

Next: `Cc1ccc([N+](=O)[O-])cc1C`
-1.44

Next: `CCOC(=O)COc1cc(-n2ncc(C(F)(F)F)c(C)c2=O)c(F)cc1Cl`
-1.14

Next: C#CCOC(=O)C(C)Oc1ccc(Oc2ncc(Cl)cc2F)cc1 (stereo unspecified)
-1.68
